Here is a set of molecules with reported pKi for Melatonin receptor type 1B (Homo sapiens, UniProt P49286), compiled from the literature.
Molecular target: Melatonin receptor type 1B (Homo sapiens, UniProt P49286)
Sequence (P49286 whole entry): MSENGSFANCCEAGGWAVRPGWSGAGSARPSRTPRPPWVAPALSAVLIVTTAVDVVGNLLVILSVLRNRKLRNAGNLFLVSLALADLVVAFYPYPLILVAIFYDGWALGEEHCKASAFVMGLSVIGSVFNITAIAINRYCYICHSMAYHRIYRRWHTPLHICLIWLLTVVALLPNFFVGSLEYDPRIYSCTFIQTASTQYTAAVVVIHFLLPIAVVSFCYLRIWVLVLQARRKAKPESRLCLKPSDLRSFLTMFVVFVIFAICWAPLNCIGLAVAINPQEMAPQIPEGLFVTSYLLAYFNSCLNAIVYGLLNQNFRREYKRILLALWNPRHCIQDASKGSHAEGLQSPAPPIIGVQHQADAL
pKi: −log10 of the molar value.

MOLECULE: CCC(=O)NC[C@@H]1C[C@H]1c1cccc2nc(C(C)C)oc12
pKi: 9.49
--
MOLECULE: CCC(=O)NCc1cc2c(OC)cccc2[nH]1
pKi: 6.54
--
MOLECULE: CC(=O)NCCCc1cccc2nc(C(C)C)oc12
pKi: 7.46
--
MOLECULE: CCC(=O)NCc1cc2c(OC)cccc2n1Cc1c(C)cccc1C
pKi: 5.22
--
MOLECULE: CCCC(=O)Nc1ccc(Oc2ccccc2OC)cc1
pKi: 6.97
--
MOLECULE: COc1cnc2[nH]cc(CCNC(C)=O)c2c1
pKi: 6.93
--
MOLECULE: COc1ccc2cccc3c2c1C(CNC(=O)C1CC1)C3 (centres undefined)
pKi: 9.51
--
MOLECULE: CCCc1nc2cccc(CCCNC(=O)NCC)c2o1
pKi: 7.44
--
MOLECULE: CCC(=O)NCCCc1cc(OC)ccc1CCc1cccc(OC)c1
pKi: 9.26
--
MOLECULE: CC(=O)NCCN(C)c1cccc(OCCCCCCOc2ccccc2)c1
pKi: 6.80
--
MOLECULE: O=C(N[C@H]1CCN(c2cccc3oc(CCCCc4ccccc4)cc23)C1)C1CC1
pKi: 6.82
--
MOLECULE: COc1ccc2cccc(CCNC(N)=O)c2n1
pKi: 9.70
--
MOLECULE: CCCC(=O)NCCC1Cc2cccc3ccc(OC)c1c23 (centres undefined)
pKi: 9.47
--
MOLECULE: CC(=O)NCCc1cccc2ccc(OCCCCOc3ccc4occ(CCNC(C)=O)c4c3)cc12
pKi: 7.86
